In this section we review reported EC50 values for a set of compounds.
Test system: Human immunodeficiency virus 1
Assay: Antiviral activity against multidrug resistant Human immunodeficiency virus 1 MDRC4
Format: functional, organism-based

[
  {
    "smi": "CC(C)CN(C[C@@H](O)[C@H](Cc1ccccc1)NC(=O)[C@@H]1CN(c2cccc(S(C)(=O)=O)c2)C(=O)O1)S(=O)(=O)c1ccc2c(c1)OCO2",
    "EC50 / µM": 0.0121
  },
  {
    "smi": "CC(C)CN(C[C@@H](O)[C@H](Cc1ccccc1)NC(=O)[C@@H]1CN(c2ccccc2)C(=O)O1)S(=O)(=O)c1ccc2ncsc2c1",
    "EC50 / µM": 0.123
  },
  {
    "smi": "CC(=O)Nc1cccc(N2C[C@@H](C(=O)N[C@@H](Cc3ccccc3)[C@H](O)CN(CC(C)C)S(=O)(=O)c3ccc4ncsc4c3)OC2=O)c1",
    "EC50 / µM": 0.0295
  }
]
